Measured values drawn from ChEMBL document CHEMBL4513216 for this set.

assay: Toxicity liver stage against HepG2, at 10uM; format: cell-based; set-up: test concentration 10 uM, cell line HepG2-A16-CD81EGFP; conditions: human, HepG2-A16-CD81EGFP cells; read-out: INHIBITION
Listed below: cytotoxicity at 10 µM values for each entry.
Entry rule: numbers only, all in %.

Use these answered entries as a reference point.
CCn1ncc(S(=O)(=O)N[C@@H]2CCC[C@@H](n3ccnc3)[C@@H]2O)c1C    1.18
O=C(OCC1CCCN(C(=O)c2ccccc2)C1)c1cscn1 (configuration not stated)    -9.92
Cc1ccc(CNCCC(O)(c2nccn2C)C(F)(F)F)o1 (configuration not stated)    1.18
COCCN1CCN(c2ccc(CN(C)C)cn2)CC1    -7.41
O=C(Cc1ccccc1O)NC1CCCN(c2ccccc2F)C1=O (configuration not stated)    -13.7
O=c1n(CCNCc2cccc3ccccc23)nc2ccccn12    0.551

Next compound, please.
Query block: What does the data say about its cytotoxicity at 10 µM? Entry: O=C(Nc1cnccn1)[C@@H]1COC[C@H]2CN(C3CCC3)C[C@H]21
Result block: 14.7
